// provenance: ChEMBL document CHEMBL2448809

Test system: Plasmodium falciparum
Test: MMV: Compounds (1uM) were screened in a 72hr growth assay monitored by flow cytometry both in the presence and absence of supplemental isopentenyl pyrophosphate (IPP) 200uM. Compounds which fail to show anti-malarial activity when chemically rescued by IPP are therefore specific to the apicoplast. The values are expressed as the ratio of the corresponding activity with and without IPP, respectively.
Format: functional, W2
Doc: threshold 1 (exclusive). Items with Ratio beneath it return Satisfied; others return Not satisfied.

[
  {
    "compound": "CCN(CC)CCn1c(=N)n(CC(O)c2ccc(Cl)c(Cl)c2)c2ccccc21.Cl (stereo not given)",
    "category": "Satisfied"
  },
  {
    "compound": "CN1CCN(c2ccc(Nc3c4ccccc4nc4ccccc34)cc2)CC1",
    "category": "Satisfied"
  },
  {
    "compound": "Br.CCn1c2c(c(=N)c3c1CCC3)CCCC2",
    "category": "Satisfied"
  },
  {
    "compound": "Cc1cc(C)c2c(c1)OCN(Cc1ccccc1Cl)C2",
    "category": "Satisfied"
  },
  {
    "compound": "CN(N=O)C1=C(NC2CCCCC2)C(=O)c2ccccc2C1=O",
    "category": "Not satisfied"
  },
  {
    "compound": "CC(O)(c1ccc(Cl)cc1)C(CN1CCCCC1)c1ccccc1.Cl (stereo not given)",
    "category": "Satisfied"
  },
  {
    "compound": "COc1ccc(C(C)=O)cc1N1C(=O)C2C(C1=O)C1(c3ccccc3)C(=O)C2(c2ccccc2)C(c2ccc(C)cc2)=C1c1ccc(C)cc1 (stereo not given)",
    "category": "Satisfied"
  },
  {
    "compound": "COc1ccc(CN2CCN(Cc3ccccc3)CC2)c(O)c1",
    "category": "Not satisfied"
  },
  {
    "compound": "CCN1CCN(Cc2ccc(NC(=O)c3cc4ccc5cccnc5c4[nH]3)cc2)CC1",
    "category": "Not satisfied"
  }
]

====

System: Plasmodium falciparum
Assay: MMV: Compounds (1uM) were screened in a 72hr growth assay monitored by flow cytometry both in the presence and absence of supplemental isopentenyl pyrophosphate (IPP) 200uM. Compounds which fail to show anti-malarial activity when chemically rescued by IPP are therefore specific to the apicoplast. The values are expressed as the ratio of the corresponding activity with and without IPP, respectively.
Format: functional, W2
Label yes (1) when Ratio is at or above 0.9; otherwise label no (0).

[
  {
    "compound": "COc1ccc(Nc2cc(C)nc(NCc3ccccc3)n2)cc1",
    "category": "no (0)"
  },
  {
    "compound": "COc1ccc(OC)c(C2C3=C(CC(C)(C)CC3=O)N(c3ccc(Cl)c(Cl)c3)C3=C2C(=O)CC(C)(C)C3)c1",
    "category": "yes (1)"
  },
  {
    "compound": "Cc1ccc(Nc2nc(-c3ccccn3)cs2)cc1",
    "category": "no (0)"
  },
  {
    "compound": "COc1ccc(C(=O)Nc2ccc(Cl)cc2C(=O)Nc2ccncc2)cc1",
    "category": "no (0)"
  },
  {
    "compound": "COc1ccc(C(=O)Nc2nonc2-c2ccc(OC)c(OC)c2)cc1Cl",
    "category": "no (0)"
  },
  {
    "compound": "COc1cc2c(cc1OC)C1=NNC(=O)C1=NC(C)(C)C2",
    "category": "yes (1)"
  },
  {
    "compound": "COc1cccc(O)c1CN1CCC2(CCCN(Cc3ccc(F)cc3)C2)C1 (configuration not stated)",
    "category": "no (0)"
  },
  {
    "compound": "CSC1=NC(=Nc2c(C)cccc2C)C2(CCC(C(C)(C)C)CC2)N1c1ccc(Cl)cc1 (configuration not stated)",
    "category": "no (0)"
  },
  {
    "compound": "CCOc1ccc(C2N(C)c3ccccc3N2C)cc1",
    "category": "no (0)"
  },
  {
    "compound": "COc1ccc(C2c3ccc4ccccc4c3Oc3ncn(CCCN(C)C)c(=N)c32)cc1 (configuration not stated)",
    "category": "yes (1)"
  },
  {
    "compound": "COc1ccc(-c2cn3c(C(=O)Nc4ccccc4Cl)c(-c4ccccc4)c4c3n2CCCC4)cc1",
    "category": "yes (1)"
  },
  {
    "compound": "CC1CN(C(=O)c2sc3ccccc3c2Cl)CC(C)O1 (configuration not stated)",
    "category": "no (0)"
  },
  {
    "compound": "FC(F)(F)c1cccc(Nc2nc(-c3ccccc3)nc3ncccc23)c1",
    "category": "no (0)"
  },
  {
    "compound": "Cc1cc(N(C)C)nc(Nc2ccc(NC(=O)Nc3ccccc3)cc2)n1",
    "category": "yes (1)"
  },
  {
    "compound": "Cc1cc(=O)oc2c1ccc1oc(C(=O)c3ccccc3)c(C)c12",
    "category": "yes (1)"
  },
  {
    "compound": "CC(=O)NCCc1nc2ccccc2n1Cc1ccc(C(C)C)cc1",
    "category": "yes (1)"
  },
  {
    "compound": "CCOc1ccc(/C=C/c2nc(=O)c3ccccc3o2)cc1",
    "category": "no (0)"
  },
  {
    "compound": "CCCCOC(=O)c1ccc(Nc2cc(C)nc3ccc(OC)cc23)cc1",
    "category": "yes (1)"
  }
]

====

Tested on: Plasmodium falciparum
Assay: MMV: Compounds (1uM) were screened in a 72hr growth assay monitored by flow cytometry both in the presence and absence of supplemental isopentenyl pyrophosphate (IPP) 200uM. Compounds which fail to show anti-malarial activity when chemically rescued by IPP are therefore specific to the apicoplast. The values are expressed as the ratio of the corresponding activity with and without IPP, respectively.
Format: functional, W2
Entries and their measured Ratio follow.
quantity-name: Ratio

[
  {
    "compound": "N#Cc1nc(Cc2cccc3ccccc23)oc1N1CCN(C(c2ccccc2)c2ccccc2)CC1",
    "quantity-name": "Ratio",
    "recorded-measurement": 1.062
  },
  {
    "compound": "O=c1nc(C=Cc2ccc(Br)cc2)oc2ccccc12",
    "quantity-name": "Ratio",
    "recorded-measurement": 1.133
  },
  {
    "compound": "COc1cccc(NC(=O)[C@H](C(C)C)n2c(=O)[nH]c3ccccc3c2=O)c1",
    "quantity-name": "Ratio",
    "recorded-measurement": 0.7619
  },
  {
    "compound": "CCCN(CCC)CC(O)COc1ccccc1C(=O)Nc1ccccc1 (stereo unspecified)",
    "quantity-name": "Ratio",
    "recorded-measurement": 0.8553
  },
  {
    "compound": "Cc1cc(NC(=O)C2c3ccccc3C(=O)N(CC(C)C)C2c2cccs2)no1 (stereo unspecified)",
    "quantity-name": "Ratio",
    "recorded-measurement": 0.791
  },
  {
    "compound": "O=C(Nc1ccc(C23CC4CC(CC(c5ccccc5)(C4)C2)C3)cc1)c1cccs1",
    "quantity-name": "Ratio",
    "recorded-measurement": 0.9231
  },
  {
    "compound": "O=C(NCc1ccco1)C1CCN(S(=O)(=O)c2ccc(Br)cc2)CC1",
    "quantity-name": "Ratio",
    "recorded-measurement": 0.7733
  },
  {
    "compound": "CCCCCCc1cc2cc(-c3nc4ccccc4[nH]3)c(=Nc3ccccc3C)oc2cc1O",
    "quantity-name": "Ratio",
    "recorded-measurement": 0.9685
  },
  {
    "compound": "CCOC(=O)c1c[nH]c2c(CC)cccc2c1=O",
    "quantity-name": "Ratio",
    "recorded-measurement": 0.8986
  },
  {
    "compound": "Oc1ccc(C(=C(Cl)Cl)c2ccc(O)cc2)cc1",
    "quantity-name": "Ratio",
    "recorded-measurement": 1.113
  },
  {
    "compound": "CCN(CC)CCNc1ncnc2c1[nH]c1ccc(Cl)cc12",
    "quantity-name": "Ratio",
    "recorded-measurement": 0.6923
  }
]

====

Tested on: Plasmodium falciparum
Assay: MMV: Compounds (1uM) were screened in a 72hr growth assay monitored by flow cytometry both in the presence and absence of supplemental isopentenyl pyrophosphate (IPP) 200uM. Compounds which fail to show anti-malarial activity when chemically rescued by IPP are therefore specific to the apicoplast. The values are expressed as the ratio of the corresponding activity with and without IPP, respectively.
Type: functional, W2

[
  {
    "compound": "O=C(O)C(=O)O.Oc1ccccc1CN1CCN(C(c2ccccc2)c2ccccc2)CC1",
    "system": "Plasmodium falciparum",
    "Ratio": 1.068
  },
  {
    "compound": "COc1ccc2c(=O)cc(C(Cl)(Cl)Cl)oc2c1",
    "system": "Plasmodium falciparum",
    "Ratio": 0.7571
  },
  {
    "compound": "O=C(c1ccccc1F)N(Cc1ccc(Cl)cc1)c1ccccn1",
    "system": "Plasmodium falciparum",
    "Ratio": 0.7857
  },
  {
    "compound": "CC(C)(C)c1ccc(C2CC3=Nc4ccccc4N(C(=O)c4ccccc4Cl)C(c4ccc(F)cc4)C3=C(O)C2)cc1 (stereo unspecified)",
    "system": "Plasmodium falciparum",
    "Ratio": 1
  },
  {
    "compound": "O=C(NC1CCCCC1)C(c1cccs1)N(CCc1ccccc1)C(=O)c1ccco1 (stereo unspecified)",
    "system": "Plasmodium falciparum",
    "Ratio": 0.9135
  },
  {
    "compound": "COc1ccc(C(=O)Nc2ccc3nc(N4CCCCC4)cc(C)c3c2)cc1OC",
    "system": "Plasmodium falciparum",
    "Ratio": 0.7897
  },
  {
    "compound": "CNCCCNc1ccnc2cc(Cl)ccc12",
    "system": "Plasmodium falciparum",
    "Ratio": 0.8333
  },
  {
    "compound": "CCOc1ccc(N2C(N)=NC(N)=NC2(C)C)cc1.Cl",
    "system": "Plasmodium falciparum",
    "Ratio": 0.7815
  },
  {
    "compound": "CCCN(CCC)CCCNC(=O)c1cc2c(-c3ccc(OC)c(OC)c3)nn(C)c2s1",
    "system": "Plasmodium falciparum",
    "Ratio": 1.186
  },
  {
    "compound": "CCOc1cc2c(cc1OCC)C(c1cc(OC)c(O)cc1Cl)NCC2 (stereo unspecified)",
    "system": "Plasmodium falciparum",
    "Ratio": 0.9254
  },
  {
    "compound": "CCCCc1c(CCC)c(=N)c2ccccc2n1C.I",
    "system": "Plasmodium falciparum",
    "Ratio": 0.7821
  }
]
